Each record here notes measured cell viability.
System: Calu-3
Test: cell viability relative to DMSO; higher = less toxic
Settings: 72 h; 100 nM
Report the value in % with no unit label.

Known cell viability results, listed for orientation:
1. COc1ccc(-c2cc(=O)c3c(OC)c(OC)c(OC)c(OC)c3o2)cc1 [tangeritin]: 103
2. CC(C)(C=O)Cc1cc(C(C)(C)C)c(O)c(C(C)(C)C)c1: 91.2
3. O=C(c1c(F)ccc(NS(=O)(=O)N2CC[C@@H](F)C2)c1F)c1c[nH]c2ncc(-c3cnc(C4CC4)nc3)cc12 [PLX8394]: 83.6

Input: Which cell viability value belongs to Cc1cc(C)cc(C(=O)O[C@H]2C[C@H]3CC[C@@H](C2)N3C)c1 [tropanyl-3,5-dimethylbenzoate] ?
Output: 98.2

Input: What value of cell viability has been recorded for this entry: COc1nccc(-c2c(-c3ccc(F)cc3)ncn2C2CCNCC2)n1
Output: 90.7

Input: Reported cell viability, compound N[C@@H](CSC(c1ccccc1)(c1ccccc1)c1ccccc1)C(=O)O [S-trityl-L-cysteine] : ____
Output: 94.2

Input: Entry Nc1ccccc1NC(=O)c1ccc(CNc2nccc(-c3cccnc3)n2)cc1 [mocetinostat] : reported cell viability = ?
Output: 86.8

Input: Need cell viability, item CS(=O)(=O)Nc1ccc2oc3c(OC(F)F)ccc(C(=O)Nc4c(Cl)cncc4Cl)c3c2c1 [oglemilast]
Output: 100

* * *

Catalogue of cell viability readings, one per entry.
System: U2OS
Assay: cell viability relative to DMSO; higher = less toxic
Settings: 72 h; 1 nM
Unit % implied. Number only.

// worked examples, cell viability included
1) N[C@@H](Cc1ccc(O)cc1)C(=O)O [plovamer-acetate]: 99.1
2) C[C@H](NC(=O)/C(C#N)=C/c1ccc(O)c(O)c1)c1ccccc1 [tyrphostin-AG-835]: 97.2
3) Cc1ccc(C[N+](C)(C)C)o1 [5-methylfurmethiodide]: 101
4) C=C1C(=O)O[C@@H]2/C=C(\C)CC/C=C(\C)CC[C@@H]12 [costunolide]: 96.3
5) Cc1ccc(/C=N/NC(=O)c2ccccc2Oc2ccccc2)o1: 106

Input: GET /values?readout=cell viability&item= CC(C)(C)Cn1c(N)nc2ccc(-c3[nH]c(C(C)(C)C)nc3-c3ccc(F)cc3)nc21
Output: 99

Input: Dear colleague, I am looking for the recorded cell viability of the following molecule: CC(=O)NCCNc1cc(Cl)nn2c(-c3cccc(S(=O)(=O)N(C)C)c3)c(C)nc12 [MI-14]
Output: 98.8

* * *

Test system: U2OS
Experiment: cell viability relative to DMSO; higher = less toxic
Conditions: 72 h; 10 nM
Recorded cell viability for the following compounds

Solved entries (count: 3):
1) Nc1ccccc1NC(=O)c1ccc(CNc2nccc(-c3cccnc3)n2)cc1: 97.2%
2) Cc1ccc(S(=O)(=O)Cc2nc(-c3ccc(C(=O)NCc4cccnc4)cc3)oc2C)cc1: 108%
3) O=C(O)CCCN1C(=O)c2cccc3cccc(c23)C1=O: 96.6%

Input: cell viability for COc1cc(NC(C)CCCN)c2ncccc2c1 (centres undefined) ?
Output: 102%

Input: cell viability for CCCCC/C=C\C/C=C\C/C=C\C/C=C\CCCC(=O)Nc1ccc(O)cc1 ?
Output: 95.2%

Input: Which cell viability reading was recorded for the compound Cc1noc(-c2ccc(-c3ccc(CC(=O)O)cc3)cc2)c1NC(=O)O[C@H](C)c1ccccc1 ?
Output: 95.3%

Input: Look at this compound and give its reported cell viability. NC(=O)[C@@H]1CC[C@@H]2CN1C(=O)N2OS(=O)(=O)O
Output: 94.6%

Input: So what does the record say about cell viability for c1cnc(NCc2ccc(CNc3ncccn3)cc2)nc1 ?
Output: 103%

Input: Any idea what its cell viability is? The compound is CCCC1(CCC)CCC2(CCN(CCCN(CC)CC)C2)CC1
Output: 105%
